From: paper PMC6943441

- measured target: µOR (Homo sapiens, UniProt P35372)
- Sequence (P35372 whole entry): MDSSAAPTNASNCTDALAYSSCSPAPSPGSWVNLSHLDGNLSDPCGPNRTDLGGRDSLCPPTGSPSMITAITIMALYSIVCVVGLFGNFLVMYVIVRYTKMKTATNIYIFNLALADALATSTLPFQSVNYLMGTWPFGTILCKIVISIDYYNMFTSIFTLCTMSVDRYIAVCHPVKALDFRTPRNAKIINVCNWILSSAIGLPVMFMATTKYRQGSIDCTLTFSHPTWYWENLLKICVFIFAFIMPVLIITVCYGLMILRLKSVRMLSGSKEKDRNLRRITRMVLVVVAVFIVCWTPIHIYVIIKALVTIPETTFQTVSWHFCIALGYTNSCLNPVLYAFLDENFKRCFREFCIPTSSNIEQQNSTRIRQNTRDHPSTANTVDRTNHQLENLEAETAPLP
pKi: −log10 of the molar value. Square brackets hold non-standard residues; d marks the D form. Peptide text beside a SMILES is read from it. 2Pal = N[C@@H](Cc1ccccn1)C(=O)O; 3Pal = N[C@@H](Cc1cccnc1)C(=O)O; 4Pal = N[C@@H](Cc1ccncc1)C(=O)O
Could you label it true if measured pKi is 9 or higher, and false otherwise?

Past entries and their recorded results:
CC(C)C[C@H](NC(=O)[C@H](Cc1cccc(C#N)c1)NC(=O)CNC(=O)CNC(=O)[C@@H](N)Cc1ccc(O)cc1)C(=O)O = true
CC(C)C[C@H](NC(=O)[C@H](Cc1ccncc1)NC(=O)CNC(=O)CNC(=O)[C@@H](N)Cc1ccc(O)cc1)C(=O)O [Compound 1l] (H-YGG[4Pal]L-OH; N-terminus and C-terminus assumed) = false
CC(C)C[C@H](NC(=O)[C@H](Cc1cccc(Br)c1)NC(=O)CNC(=O)CNC(=O)[C@@H](N)Cc1ccc(O)cc1)C(=O)O = true

Hi team, for CC(C)C[C@H](NC(=O)[C@H](Cc1cccnc1)NC(=O)CNC(=O)CNC(=O)[C@@H](N)Cc1ccc(O)cc1)C(=O)O [Compound 1k] (H-YGG[3Pal]L-OH; N-terminus and C-terminus assumed) , is the recorded pKi at or above 9?
false

Hi team, for Cc1cccc(C[C@H](NC(=O)CNC(=O)CNC(=O)[C@@H](N)Cc2ccc(O)cc2)C(=O)N[C@@H](CC(C)C)C(=O)O)c1 , is the recorded pKi at or above 9?
true

Hi team, for CC(C)C[C@H](NC(=O)[C@H](Cc1cccc(I)c1)NC(=O)CNC(=O)CNC(=O)[C@@H](N)Cc1ccc(O)cc1)C(=O)O , is the recorded pKi at or above 9?
true

Hi team, for CC(C)C[C@H](NC(=O)[C@H](Cc1ccccn1)NC(=O)CNC(=O)CNC(=O)[C@@H](N)Cc1ccc(O)cc1)C(=O)O [Compound 1j] (H-YGG[2Pal]L-OH; N-terminus and C-terminus assumed) , is the recorded pKi at or above 9?
false

---

- measured target: HA-mouse µOR (Mus musculus, UniProt P42866)
- Construct: HA; expressed in transfected cells; host or cells: HEK 293
- Sequence (P42866 whole entry): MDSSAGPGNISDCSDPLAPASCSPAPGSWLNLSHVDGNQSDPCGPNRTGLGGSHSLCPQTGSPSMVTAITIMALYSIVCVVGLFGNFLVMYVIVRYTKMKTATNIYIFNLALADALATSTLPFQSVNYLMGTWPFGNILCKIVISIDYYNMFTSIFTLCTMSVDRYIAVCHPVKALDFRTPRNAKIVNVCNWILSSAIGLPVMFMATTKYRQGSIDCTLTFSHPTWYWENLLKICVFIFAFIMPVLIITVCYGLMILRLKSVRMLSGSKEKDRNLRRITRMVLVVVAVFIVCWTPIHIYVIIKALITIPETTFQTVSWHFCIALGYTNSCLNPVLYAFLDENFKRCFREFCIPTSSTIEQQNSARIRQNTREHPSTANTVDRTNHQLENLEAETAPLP
- assay: cAMP GloSensor inhibition assay in HEK 293 cells
- Format: cell-based
- experimental setup: HEK 293, forskolin 30 µM; read-out: cAMP IC50 (nM) µOR
Square brackets hold non-standard residues; d marks the D form. Peptide text beside a SMILES is read from it. 2Pal = N[C@@H](Cc1ccccn1)C(=O)O; 3Pal = N[C@@H](Cc1cccnc1)C(=O)O
For each of the compounds below, state its IC50.
Numbers only, in nM.

# annotated cases, reported IC50 shown
CC(C)C[C@H](NC(=O)[C@H](Cc1ccccn1)NC(=O)CNC(=O)CNC(=O)[C@@H](N)Cc1ccc(O)cc1)C(=O)O [Compound 1j] (H-YGG[2Pal]L-OH; N-terminus and C-terminus assumed) = 40.7
CC(C)C[C@H](NC(=O)[C@H](Cc1cccnc1)NC(=O)CNC(=O)CNC(=O)[C@@H](N)Cc1ccc(O)cc1)C(=O)O [Compound 1k] (H-YGG[3Pal]L-OH; N-terminus and C-terminus assumed) = 234
CC(C)C[C@H](NC(=O)[C@H](Cc1cccc(C#N)c1)NC(=O)CNC(=O)CNC(=O)[C@@H](N)Cc1ccc(O)cc1)C(=O)O = 12
CC(C)C[C@H](NC(=O)[C@H](Cc1cccc(C(F)(F)F)c1)NC(=O)CNC(=O)CNC(=O)[C@@H](N)Cc1ccc(O)cc1)C(=O)O = 2.45

Alright, here's another compound for you.
Note IC50 for the compound shown: Cc1cccc(C[C@H](NC(=O)CNC(=O)CNC(=O)[C@@H](N)Cc2ccc(O)cc2)C(=O)N[C@@H](CC(C)C)C(=O)O)c1
3.72

---

- measured target: FLAG-mouse δOR (Mus musculus, UniProt P32300)
- Construct: FLAG; expressed in transfected cells; host or cells: HEK 293
- Sequence (P32300 whole entry): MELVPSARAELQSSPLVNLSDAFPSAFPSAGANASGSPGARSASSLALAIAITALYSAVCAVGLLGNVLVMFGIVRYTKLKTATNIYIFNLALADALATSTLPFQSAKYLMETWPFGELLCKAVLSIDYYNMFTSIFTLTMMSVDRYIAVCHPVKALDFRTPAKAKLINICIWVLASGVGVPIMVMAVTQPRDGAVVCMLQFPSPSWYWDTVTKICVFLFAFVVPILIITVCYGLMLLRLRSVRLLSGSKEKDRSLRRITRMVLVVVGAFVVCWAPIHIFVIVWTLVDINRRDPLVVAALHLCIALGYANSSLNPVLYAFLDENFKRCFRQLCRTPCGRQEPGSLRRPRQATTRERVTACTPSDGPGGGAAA
- assay: cAMP GloSensor inhibition assay in HEK 293 cells
- Type: cell-based
- experimental setup: operational model Log R (τ/KA)
Could you label it YES if measured LogR (δOR) cAMP is 10 or higher, and NO otherwise?

Past entries and their recorded results:
CC(C)C[C@H](NC(=O)[C@H](Cc1cccc(C#N)c1)NC(=O)CNC(=O)CNC(=O)[C@@H](N)Cc1ccc(O)cc1)C(=O)O [Compound 1h] = NO
CC(C)C[C@H](NC(=O)[C@H](Cc1cccc(F)c1)NC(=O)CNC(=O)CNC(=O)[C@@H](N)Cc1ccc(O)cc1)C(=O)O [Compound 1a, H2N-Tyr-Gly-Gly-(meta-F)Phe-Leu-OH] = NO
CC(C)C[C@H](NC(=O)[C@H](Cc1cccc(Cl)c1)NC(=O)CNC(=O)CNC(=O)[C@@H](N)Cc1ccc(O)cc1)C(=O)O [Compound 1b, H2N-Tyr-Gly-Gly-(meta-Cl)Phe-Leu-OH] = YES

Let's switch to this compound now.
Hi team, for CC(C)C[C@H](NC(=O)[C@H](Cc1cccc(Br)c1)NC(=O)CNC(=O)CNC(=O)[C@@H](N)Cc1ccc(O)cc1)C(=O)O [Compound 1c, H2N-Tyr-Gly-Gly-(meta-Br)Phe-Leu-OH] , is the recorded LogR (δOR) cAMP at or above 10?
YES

---

- measured target: HA-mouse µOR (Mus musculus, UniProt P42866)
- Construct: HA; expressed in transfected cells; host or cells: HEK 293
- assay: cAMP GloSensor inhibition assay in HEK 293 cells
- Assay type: cell-based
- experimental setup: operational model Log R (τ/KA)
For each of the compounds below, state its LogR (µOR) cAMP.

# annotated cases, reported LogR (µOR) cAMP shown
CC(C)C[C@H](NC(=O)[C@H](Cc1cccc(F)c1)NC(=O)CNC(=O)CNC(=O)[C@@H](N)Cc1ccc(O)cc1)C(=O)O = 8.0
CC(C)C[C@H](NC(=O)[C@H](Cc1cccc(I)c1)NC(=O)CNC(=O)CNC(=O)[C@@H](N)Cc1ccc(O)cc1)C(=O)O = 8.0
CC(C)C[C@H](NC(=O)[C@H](Cc1cccc(C(F)(F)F)c1)NC(=O)CNC(=O)CNC(=O)[C@@H](N)Cc1ccc(O)cc1)C(=O)O = 8.1

Your task in this section: give LogR (µOR) cAMP for each listed record.
1. CC(C)C[C@H](NC(=O)[C@H](Cc1cccc(Br)c1)NC(=O)CNC(=O)CNC(=O)[C@@H](N)Cc1ccc(O)cc1)C(=O)O
2. CC(C)C[C@H](NC(=O)[C@H](Cc1cccc(Cl)c1)NC(=O)CNC(=O)CNC(=O)[C@@H](N)Cc1ccc(O)cc1)C(=O)O
3. CC(C)C[C@H](NC(=O)[C@H](Cc1cccc(C#N)c1)NC(=O)CNC(=O)CNC(=O)[C@@H](N)Cc1ccc(O)cc1)C(=O)O
4. C[C@@H](NC(=O)[C@@H](N)Cc1ccc(O)cc1)C(=O)NCC(=O)N(C)[C@@H](Cc1ccccc1)C(=O)NCCO [DAMGO, (D-Ala^2, N-MePhe^4, Gly-ol) enkephalin, reference compound]
5. Cc1cccc(C[C@H](NC(=O)CNC(=O)CNC(=O)[C@@H](N)Cc2ccc(O)cc2)C(=O)N[C@@H](CC(C)C)C(=O)O)c1
6. CC(C)C[C@H](NC(=O)[C@H](Cc1cccc([N+](=O)[O-])c1)NC(=O)CNC(=O)CNC(=O)[C@@H](N)Cc1ccc(O)cc1)C(=O)O
7. COc1cccc(C[C@H](NC(=O)CNC(=O)CNC(=O)[C@@H](N)Cc2ccc(O)cc2)C(=O)N[C@@H](CC(C)C)C(=O)O)c1

1: 8.1; 2: 7.5; 3: 7.5; 4: 7.8; 5: 8.1; 6: 7.2; 7: 7.4

---

- measured target: FLAG-mouse δOR (Mus musculus, UniProt P32300)
- Construct: FLAG; expressed in transfected cells; host or cells: HEK 293
- assay: cAMP GloSensor inhibition assay in HEK 293 cells
- Type: cell-based
- experimental setup: HEK 293, forskolin 30 µM; read-out: cAMP IC50 (nM) δOR
Square brackets hold non-standard residues; d marks the D form. Peptide text beside a SMILES is read from it. 2Pal = N[C@@H](Cc1ccccn1)C(=O)O; 4Pal = N[C@@H](Cc1ccncc1)C(=O)O
measure name: IC50 (nM)
Answers are plain numbers, in nM.

# annotated cases, reported IC50 shown
CC(C)C[C@H](NC(=O)[C@H](Cc1cccc(F)c1)NC(=O)CNC(=O)CNC(=O)[C@@H](N)Cc1ccc(O)cc1)C(=O)O [Compound 1a, H2N-Tyr-Gly-Gly-(meta-F)Phe-Leu-OH] = 0.39
CC(C)C[C@H](NC(=O)[C@H](Cc1ccncc1)NC(=O)CNC(=O)CNC(=O)[C@@H](N)Cc1ccc(O)cc1)C(=O)O [Compound 1l] (H-YGG[4Pal]L-OH; N-terminus and C-terminus assumed) = 30.2
Cc1cccc(C[C@H](NC(=O)CNC(=O)CNC(=O)[C@@H](N)Cc2ccc(O)cc2)C(=O)N[C@@H](CC(C)C)C(=O)O)c1 [Compound 1e] = 0.039
CC(C)C[C@H](NC(=O)[C@H](Cc1ccccn1)NC(=O)CNC(=O)CNC(=O)[C@@H](N)Cc1ccc(O)cc1)C(=O)O [Compound 1j] (H-YGG[2Pal]L-OH; N-terminus and C-terminus assumed) = 4.57
CC(C)C[C@H](NC(=O)[C@H](Cc1cccc([N+](=O)[O-])c1)NC(=O)CNC(=O)CNC(=O)[C@@H](N)Cc1ccc(O)cc1)C(=O)O [Compound 1i] = 0.47
CC(C)C[C@H](NC(=O)[C@H](Cc1cccc(I)c1)NC(=O)CNC(=O)CNC(=O)[C@@H](N)Cc1ccc(O)cc1)C(=O)O [Compound 1d] = 0.025

Alright, here's another compound for you.
Note IC50 for the compound shown: CC(C)C[C@H](NC(=O)[C@H](Cc1cccc(Br)c1)NC(=O)CNC(=O)CNC(=O)[C@@H](N)Cc1ccc(O)cc1)C(=O)O [Compound 1c, H2N-Tyr-Gly-Gly-(meta-Br)Phe-Leu-OH]
0.03
